Biological target: EphA2 extracellular domain fused to the Fc portion of an antibody (EphA2 Fc)
Sequence (P29317 whole entry, the tested form may be a part): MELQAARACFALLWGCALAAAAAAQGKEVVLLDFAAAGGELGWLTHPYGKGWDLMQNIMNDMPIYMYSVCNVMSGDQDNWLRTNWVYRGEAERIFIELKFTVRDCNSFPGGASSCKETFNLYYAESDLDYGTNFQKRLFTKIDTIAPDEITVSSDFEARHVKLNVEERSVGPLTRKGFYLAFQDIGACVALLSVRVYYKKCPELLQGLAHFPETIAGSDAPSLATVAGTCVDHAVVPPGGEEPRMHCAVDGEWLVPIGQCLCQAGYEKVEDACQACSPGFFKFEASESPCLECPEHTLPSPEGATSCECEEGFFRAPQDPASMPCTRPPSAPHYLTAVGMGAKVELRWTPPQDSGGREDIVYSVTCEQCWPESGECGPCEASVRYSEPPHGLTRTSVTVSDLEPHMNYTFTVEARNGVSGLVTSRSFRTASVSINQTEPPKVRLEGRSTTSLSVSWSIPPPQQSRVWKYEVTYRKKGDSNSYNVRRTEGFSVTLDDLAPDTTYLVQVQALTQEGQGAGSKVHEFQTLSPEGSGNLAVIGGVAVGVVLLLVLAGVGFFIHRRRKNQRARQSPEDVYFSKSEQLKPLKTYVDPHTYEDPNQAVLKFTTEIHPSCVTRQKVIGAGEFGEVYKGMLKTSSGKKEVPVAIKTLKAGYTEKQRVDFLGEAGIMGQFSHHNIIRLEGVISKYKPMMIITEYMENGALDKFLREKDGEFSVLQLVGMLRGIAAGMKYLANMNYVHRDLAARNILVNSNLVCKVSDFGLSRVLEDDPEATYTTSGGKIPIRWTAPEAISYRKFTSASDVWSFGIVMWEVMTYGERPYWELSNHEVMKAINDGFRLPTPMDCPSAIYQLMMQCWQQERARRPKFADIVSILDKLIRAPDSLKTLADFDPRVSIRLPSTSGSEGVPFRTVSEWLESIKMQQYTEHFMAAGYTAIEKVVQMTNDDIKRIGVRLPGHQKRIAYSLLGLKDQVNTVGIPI
Assay: competition ELISA: inhibition of ephrin-A5 AP binding to immobilized EphA2 Fc; average ± SE (number of experiments)
Non-standard residues stand in square brackets, D forms with d. No end group written: not given here. *: point of attachment. Biotin = O=C1N[C@H]2[C@H](CS[C@H]2CCCCC(=O)*)N1; βAla = NCCC(=O)O
Readings of IC50 for the listed binders
Give just the numeric value; nM need not be written.

A selection of reference data follows.
INSERT INTO assay_data (binder, quantitative_result) VALUES
  ('WLAYPDSVPM-NH2 [WLAam]', 1500),
  ('[βAla]WLAYPDSVPYGSGK(Biotin) [βA-WLA-YGSGK-bio]', 330),
  ('[βAla]WLAYPDSVPYR [βA-WLA-YR]', 390),
  ('[βAla]WLAYPDSVPYSPK(Biotin) [βA-WLA-YSPK-bio]', 62),
  ('[βAla]WLAYPDSVPYK(Biotin) [βA-WLA-YK-bio]', 730),
  ('[βAla]WLAYPDSVPYGSK(Biotin) [βA-WLA-YGSK-bio]', 400),
  ('[βAla]WLAYPDSVPYSK [βA-WLA-YSK]', 380);

Continue with the binder presented below.
binder [βAla]WLAYPDSVPM-NH2 [βA-WLAam] , IC50 observed: 840

Reference source for all entries: patent US12398179
